target system: T1, PCSK9 (UniProt Q8NBP7 31-692, limits assumed)
T1 construct: Printed only as 'PCSK9' in Embodiments 5.4 and 6; also called Proprotein Convertase Subtilisin/Kexin Type 9; PCSK9 solution
T1 sequence (Q8NBP7 31-692 limits assumed): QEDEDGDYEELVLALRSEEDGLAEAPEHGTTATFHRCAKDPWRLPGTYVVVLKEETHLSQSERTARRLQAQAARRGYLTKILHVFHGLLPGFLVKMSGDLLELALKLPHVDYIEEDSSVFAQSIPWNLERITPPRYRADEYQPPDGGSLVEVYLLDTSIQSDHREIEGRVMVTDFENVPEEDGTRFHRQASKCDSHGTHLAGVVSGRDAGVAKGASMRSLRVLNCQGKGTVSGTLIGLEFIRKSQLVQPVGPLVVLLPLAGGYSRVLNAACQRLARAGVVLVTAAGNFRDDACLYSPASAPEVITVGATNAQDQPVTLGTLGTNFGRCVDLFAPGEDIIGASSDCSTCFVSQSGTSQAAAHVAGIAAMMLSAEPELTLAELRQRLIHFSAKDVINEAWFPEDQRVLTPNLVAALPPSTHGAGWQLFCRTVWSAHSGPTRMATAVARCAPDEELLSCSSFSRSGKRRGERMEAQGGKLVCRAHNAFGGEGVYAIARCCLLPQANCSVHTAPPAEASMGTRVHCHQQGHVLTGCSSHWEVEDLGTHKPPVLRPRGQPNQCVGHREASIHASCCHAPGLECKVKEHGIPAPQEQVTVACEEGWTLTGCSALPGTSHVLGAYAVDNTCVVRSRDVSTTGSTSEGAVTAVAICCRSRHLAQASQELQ
test: SPR BIAcore X100, antibody captured by goat anti-human IgG on CM5, PCSK9 as analyte
Threshold check on Kd: strictly below 0.05 nM is label 1; on or above 0.05 nM is label 0.

>  <binder>
DFSK9-16 complete antibody (antibody, V domains shown) VH: QVQLVQSGAEVKKPGASVKVSCKASGYTVTSYGISWVRQAPGQGLEWMGWVSFYQGNTNYAQKLQGRGTMTTDPSTSTAYMELRSLRSDDTAVYYCARGFGMDRWGQGTTVTVSS VL: DIQMTQSPSSLSASVGDRVTITCRASQNINSWLNWYQQKPGKAPKLLIYGASSRQSGVPSRFSGSGSGTDFTLTISSLQPEDFATYYCQQWFDVPTTFGQGTKVEIK

>  <discrete label>
label 1

$$$$
>  <binder>
DFSK9-13 complete antibody (antibody, V domains shown) VH: QVQLVQSGAEVKKPGASVKVSCKASGYSLTSYGISWVRQAPGQGLEWMGWVSFYQGNTNYAQKLQGRGTMTTDPSTSTAYMELRSLRSDDTAVYYCARGYGMTVWGQGTTVTVSS VL: DIQMTQSPSSLSASVGDRVTITCRASQDVDSWLTWYQQKPGKAPKLLIYGASNLASGVPSRFSGSGSGTDFTLTISSLQPEDFATYYCQQDSKIPLTFGQGTKVEIK

>  <discrete label>
label 0

$$$$
>  <binder>
DFSK9-21 complete antibody (antibody, V domains shown, also called DF5K9-21) VH: QVQLVQSGAEVKKPGASVKVSCKASGYSLTSYGISWVRQAPGQGLEWMGWVSFYNGQTNYAQKLQGRGTMTTDPSTSTAYMELRSLRSDDTAVYYCARGFGMDRWGQGTTVTVSS VL: DIQMTQSPSSLSASVGDRVTITCRASQNINNWLNWYQQKPGKAPKLLIYGASTRPTGVPSRFSGSGSGTDFTLTISSLQPEDFATYYCQQWDDTPNTFGQGTKVEIK

>  <discrete label>
label 1

$$$$
>  <binder>
DFSK9-17 complete antibody (antibody, V domains shown) VH: QVQLVQSGAEVKKPGASVKVSCKASGYTVTSYGISWVRQAPGQGLEWMGWVSFYNGNSNYAQKLQGRGTMTTDPSTSTAYMELRSLRSDDTAVYYCARGYSLDVWGQGTTVTVSS VL: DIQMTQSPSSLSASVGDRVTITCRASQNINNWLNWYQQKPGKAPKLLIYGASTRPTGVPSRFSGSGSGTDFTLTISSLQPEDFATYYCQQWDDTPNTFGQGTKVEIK

>  <discrete label>
label 1

$$$$
>  <binder>
DFSK9-19 complete antibody (antibody, V domains shown) VH: QVQLVQSGAEVKKPGASVKVSCKASGYSLTSYGISWVRQAPGQGLEWMGWVTFYNGNTNYAQKLQGRGTMTTDPSTSTAYMELRSLRSDDTAVYYCARGFGLSVWGQGTTVTVSS VL: DIQMTQSPSSLSASVGDRVTITCRASQNVNNWLNWYQQKPGKAPKLLIYAASTRETGVPSRFSGSGSGTDFTLTISSLQPEDFATYYCQQDNDMPLTFGQGTKVEIK

>  <discrete label>
label 0

$$$$
>  <binder>
DFSK9-20 complete antibody (antibody, V domains shown) VH: QVQLVQSGAEVKKPGASVKVSCKASGYSLTSYGISWVRQAPGQGLEWMGWVSFYNGNSNYAQKLQGRGTMTTDPSTSTAYMELRSLRSDDTAVYYCARGFGMDRWGQGTTVTVSS VL: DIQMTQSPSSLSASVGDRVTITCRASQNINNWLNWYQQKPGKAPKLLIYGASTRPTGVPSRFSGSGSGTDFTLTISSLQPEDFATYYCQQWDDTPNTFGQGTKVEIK

>  <discrete label>
label 1

$$$$
>  <binder>
DFSK9-15 complete antibody (antibody, V domains shown) VH: QVQLVQSGAEVKKPGASVKVSCKASGYTVTSYGISWVRQAPGQGLEWMGWVSFYNGQTNYAQKLQGRGTMTTDPSTSTAYMELRSLRSDDTAVYYCARGYSLDVWGQGTTVTVSS VL: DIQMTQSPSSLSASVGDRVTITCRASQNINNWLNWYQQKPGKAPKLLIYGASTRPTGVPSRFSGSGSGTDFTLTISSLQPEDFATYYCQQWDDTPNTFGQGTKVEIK

>  <discrete label>
label 1

$$$$
>  <binder>
DFSK9-12 complete antibody (antibody, V domains shown) VH: QVQLVQSGAEVKKPGASVKVSCKASGYTVTSYGISWVRQAPGQGLEWMGWLSFYNGNTNYAQKLQGRGTMTTDPSTSTAYMELRSLRSDDTAVYYCARGYSLDVWGQGTTVTVSS VL: DIQMTQSPSSLSASVGDRVTITCRASQSVRNWLDWYQQKPGKAPKLLIYGASTLESGVPSRFSGSGSGTDFTLTISSLQPEDFATYYCQQDNDIPLTFGQGTKVEIK

>  <discrete label>
label 0

$$$$
>  <binder>
DFSK9-1 complete antibody (antibody, V domains shown) VH: QVQLVQSGAEVKRPGASVKVSCKASGGTFTNNAISWVRQAPGQGLEWMGRIIPMFGMANYAQKLQGRGTMTTDPSTSTAYMELRSLRSDDTAVYYCAREGIPMIWGQGTTVTVSS VL: DIQMTQSPSSLSASVGDRVTITCRASQSIDNRLTWYQQKPGKAPKLLIYDASSRQSGVPSRFSGSGSGTDFTLTISSLQPEDFATYYCQQPENDPTTFGQGTKVEIK

>  <discrete label>
label 0

$$$$
>  <binder>
DFSK9-14 complete antibody (antibody, V domains shown) VH: QVQLVQSGAEVKKPGASVKVSCKASGYSLTSYGISWVRQAPGQGLEWMGWVSFYNGQTNYAQKLQGRGTMTTDPSTSTAYMELRSLRSDDTAVYYCARGYGMSIWGQGTTVTVSS VL: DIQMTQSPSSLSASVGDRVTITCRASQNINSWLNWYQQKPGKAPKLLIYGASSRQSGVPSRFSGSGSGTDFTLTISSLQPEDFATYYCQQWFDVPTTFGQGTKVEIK

>  <discrete label>
label 1

$$$$
>  <binder>
DFSK9-18 complete antibody (antibody, V domains shown) VH: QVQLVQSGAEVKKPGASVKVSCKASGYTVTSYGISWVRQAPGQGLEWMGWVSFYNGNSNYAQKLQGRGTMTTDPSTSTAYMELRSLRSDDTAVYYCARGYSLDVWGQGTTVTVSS VL: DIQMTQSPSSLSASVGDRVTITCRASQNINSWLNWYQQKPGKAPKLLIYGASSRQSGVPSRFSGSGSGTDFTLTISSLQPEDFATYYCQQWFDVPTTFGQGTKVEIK

>  <discrete label>
label 1

$$$$
